pKi: −log10 of the molar value.
Below are pKi values for Tyrosine-protein kinase JAK2 (Homo sapiens) collected from several publications.

>  <Molecule>
O=C(NCC(F)(F)F)[C@@H]1CNCCN1c1nc(-c2c[nH]c3ncccc23)ncc1F

>  <pKi>
≤ 6.30

$$$$
>  <Molecule>
CC(C(=O)NCc1ccccc1)n1cc(-c2ncnc3[nH]ccc23)cn1 (stereo not drawn)

>  <pKi>
6.30 to 7.00

$$$$
>  <Molecule>
COc1ccc(C2Nc3ccccc3-c3ccnc4[nH]cc2c34)c(OC)c1 (stereo not drawn)

>  <pKi>
< 5.60

$$$$

Value of measured pKi for the entry C1=C(c2ncnc3[nH]ccc23)CCCC1 : > 6.30

Value of measured pKi for the entry CC[C@@H]1CC[C@@H](CC)N1C(=O)c1cc(-c2ncnc3[nH]ccc23)c[nH]1 : > 7.00

====

Below are pKi values for Tyrosine-protein kinase JAK2 (Homo sapiens) collected from several publications.
pKi: −log10 of the molar value.

>  <Compound>
C[C@H](Nc1cc(-c2c(N)nn3cccnc23)nc(S(C)(=O)=O)n1)c1ccc(F)cc1

>  <Measured result>
> 8.00

$$$$
>  <Compound>
CCNC(=O)C1CCCN(c2ccn(-c3cc(-c4c(F)cccc4C#N)nc4c3C(=O)NC4)n2)C1 (centres unmarked)

>  <Measured result>
7.00 to 8.00

$$$$
>  <Compound>
Fc1ccc(C2Nc3ccccc3-c3ccnc4[nH]cc2c34)c(F)c1 (centres unmarked)

>  <Measured result>
> 6.60

$$$$
>  <Compound>
COC(=O)Nc1ccc(C2c3cn(C(=O)OC)c4nccc(c34)-c3ccccc3N2C(=O)OC)cc1 (centres unmarked)

>  <Measured result>
< 5.60

$$$$

Value of measured pKi for the entry C=CCOc1nc(N[C@@H](C)c2ccc(F)cc2)cc(-c2c(N)nn3cccnc23)n1 : > 8.00

Value of measured pKi for the entry CCCCN(CC)C(=O)c1cc(-c2ncnc3[nH]cc(C)c23)c[nH]1 : > 7.00

Value of measured pKi for the entry CCCN(CCC#N)C(=O)c1cc(-c2ncnc3[nH]ccc23)c[nH]1 : > 7.00

Value of measured pKi for the entry [2H]C([2H])([2H])C1(O)C([2H])([2H])N(c2ccn(-c3cc(-c4c(F)cccc4C#N)nc4c3C(=O)NC4)n2)C([2H])([2H])C1([2H])[2H] (centres unmarked) : 8.00 to 10.00

Value of measured pKi for the entry FC(F)(F)c1ccc(C2Nc3ccccc3-c3ccnc4[nH]cc2c34)cc1 (centres unmarked) : < 5.60

Value of measured pKi for the entry CN(CCC#N)C(=O)c1cc(-c2ncnc3[nH]ccc23)c[nH]1 : > 7.00

====

Below are Ki values for Tyrosine-protein kinase JAK2 (Homo sapiens) collected from several publications.

Field: example entries. Status: answers known.
>  <Compound>
CC(C)(C(=O)NCC(F)(F)F)n1cnc2cnc(-c3c[nH]c4ncncc34)nc21

>  <Ki>
< 500 nM

$$$$
>  <Compound>
N#Cc1cccc(F)c1-c1cc(Nc2ccc(N3CCC4(CC(O)CO4)C3)cn2)c2c(n1)CNC2=O (stereo in doubt)

>  <Ki>
≤ 10 nM

$$$$
>  <Compound>
Cc1cc(Nc2cc(N3CCC3)nc(Sc3ccc(NC(=O)c4cccc(C)c4Cl)cc3)n2)n[nH]1

>  <Ki>
290 nM

$$$$
>  <Compound>
CC1(C)COC(c2ccn(-c3cc(-c4c(F)cccc4C#N)nc4c3C(=O)NC4)n2)=N1

>  <Ki>
10 to 100 nM

$$$$
>  <Compound>
c1ccc(Oc2ccc(C3Nc4ccccc4-c4ccnc5[nH]cc3c45)cc2)cc1 (stereo not shown)

>  <Ki>
> 2500 nM

$$$$
>  <Compound>
N#Cc1cccc(F)c1-c1cc(-n2ccc(N3CCC[C@H](O)[C@H](O)C3)n2)c2c(n1)CNC2=O

>  <Ki>
10 to 100 nM

$$$$
>  <Compound>
N#Cc1cccc(F)c1-c1cc(-n2ccc(N3CC[C@](O)(C(=O)N4CCCC4)C3)n2)c2c(n1)CNC2=O

>  <Ki>
10 to 100 nM

$$$$
>  <Compound>
C[C@@H]1CC[C@@H](C)N1C(=O)c1ccc(-c2ncnc3[nH]ccc23)o1

>  <Ki>
< 100 nM

$$$$
>  <Compound>
O=C1NCc2nc(-c3c(F)cccc3F)cc(Nc3ccc4c(c3)COB4O)c21

>  <Ki>
≥ 1000 nM

$$$$
>  <Compound>
CC1(C)CNc2cc(Nc3nc(-c4c(F)cccc4F)nc4c3C(=O)NC4)ccc21

>  <Ki>
10 to 100 nM

$$$$

Tyrosine-protein kinase JAK2 (Homo sapiens) Ki of C[C@@H](Oc1cc(-c2c(N)nn3cccnc23)ncn1)c1ccccc1 is 10 to 100 nM

Tyrosine-protein kinase JAK2 (Homo sapiens) Ki of CC(C(=O)NCC1CCCO1)n1cc(-c2ncnc3[nH]ccc23)cn1 (stereo not shown) is 500 to 5000 nM

====

pKi: −log10 of the molar value.
Below are pKi values for Tyrosine-protein kinase JAK2 (Homo sapiens, UniProt O60674) collected from several publications.

Field: example entries. Status: answers known.
>  <Compound>
Fc1ccc(C2Nc3ccccc3-c3ccnc4[nH]cc2c34)cc1 (centres unmarked)

>  <pKi>
5.60 to 6.60

$$$$
>  <Compound>
CC(C)(Nc1ccnc(-c2c[nH]c3ncncc23)n1)C(=O)NCC(F)(F)F

>  <pKi>
> 6.30

$$$$
>  <Compound>
CC(C)[C@@](C)(Nc1nc(-c2c[nH]c3ncncc23)ncc1F)C(=O)NCC(F)(F)F

>  <pKi>
> 6.30

$$$$
>  <Compound>
CC(C(=O)NC1CC1)n1cc(-c2ncnc3[nH]ccc23)cn1 (centres unmarked)

>  <pKi>
6.30 to 7.00

$$$$
>  <Compound>
CCCNC(=O)N1CCN(c2ccnc(-c3c[nH]c4ncccc34)n2)[C@@H](C(=O)NCC(F)(F)F)C1

>  <pKi>
≤ 6.30

$$$$

Tyrosine-protein kinase JAK2 (Homo sapiens, UniProt O60674) pKi of CCNC(=O)C(CC(F)(F)F)Nc1nc(-c2c[nH]c3ncncc23)ncc1F (centres unmarked) is 5.30 to 6.30

Tyrosine-protein kinase JAK2 (Homo sapiens, UniProt O60674) pKi of Fc1cccc(C2Nc3ccccc3-c3ncnc4[nH]cc2c34)c1 (centres unmarked) is 5.60 to 6.60

Tyrosine-protein kinase JAK2 (Homo sapiens, UniProt O60674) pKi of Clc1cccc(C2Nc3ccccc3-c3ccnc4[nH]cc2c34)c1 (centres unmarked) is 5.60 to 6.60

====

Below are Ki values for Tyrosine-protein kinase JAK2 (Homo sapiens, UniProt O60674) collected from several publications.

Field: example entries. Status: answers known.
>  <Compound>
Cn1cc(-c2ncnc3[nH]ccc23)cn1

>  <Readout type>
Ki

>  <Measured result>
100 to 500 nM

$$$$
>  <Compound>
CCNC(=O)[C@@](C)(O)c1ccc(Nc2nc(-c3c(F)cccc3F)nc3c2C(=O)NC3)cc1

>  <Readout type>
Ki

>  <Measured result>
10 to 100 nM

$$$$
>  <Compound>
O=C1Nc2ccccc2-c2ccnc3[nH]cc(c23)C1c1ccc(O)c(F)c1 (stereo not drawn)

>  <Readout type>
Ki

>  <Measured result>
< 250 nM

$$$$
>  <Compound>
O=C1NCc2nc(-n3c(F)cccc3=O)cc(Nc3ccc(N4CCOCC4)cn3)c21

>  <Readout type>
Ki

>  <Measured result>
100 to 1000 nM

$$$$
>  <Compound>
CCCCN(CC)C(=O)c1cc(-c2ncnc3[nH]cc(Cl)c23)c[nH]1

>  <Readout type>
Ki

>  <Measured result>
< 100 nM

$$$$
>  <Compound>
N#Cc1cccc(F)c1-c1cc(-n2ccc(N3CCCOCC3)n2)c2c(n1)CNC2=O

>  <Readout type>
Ki

>  <Measured result>
10 to 100 nM

$$$$

Value of measured Ki for the entry Nc1nn2cccnc2c1-c1cc(N2Cc3ccccc3C2)ncn1 : 10 to 100 nM

Value of measured Ki for the entry C=CCOCCOc1nc(N[C@@H](C)c2ccc(F)cc2F)cc(-c2cnn3cccnc23)n1 : < 10 nM

Value of measured Ki for the entry Nc1[nH]ncc1-c1ncnc2[nH]ccc12 : 100 to 500 nM

====

Below are Ki values for Tyrosine-protein kinase JAK2 (Homo sapiens) collected from several publications.

Field: example entries. Status: answers known.
>  <Compound>
COc1cc(C2Nc3ccccc3-c3ncnc4[nH]cc2c34)ccc1O (stereo not drawn)

>  <Tested system>
Tyrosine-protein kinase JAK2 (Homo sapiens)

>  <Ki>
< 250 nM

$$$$
>  <Compound>
CC(c1ccccc1)c1ncnc2[nH]ccc12 (stereo not drawn)

>  <Tested system>
Tyrosine-protein kinase JAK2 (Homo sapiens)

>  <Ki>
500 to 5000 nM

$$$$
>  <Compound>
N#CCCN(CC1CC1)C(=O)c1ccc(-c2ncnc3[nH]ccc23)o1

>  <Tested system>
Tyrosine-protein kinase JAK2 (Homo sapiens)

>  <Ki>
< 100 nM

$$$$
>  <Compound>
O=C(NCC(F)(F)F)C1COCCN1c1nc(-c2c[nH]c3ncc(Cl)cc23)ncc1F (stereo not drawn)

>  <Tested system>
Tyrosine-protein kinase JAK2 (Homo sapiens)

>  <Ki>
≥ 500 nM

$$$$
>  <Compound>
CC[C@@](C)(Nc1ccnc(-c2c[nH]c3ncncc23)n1)C(=O)NCC(F)(F)F

>  <Tested system>
Tyrosine-protein kinase JAK2 (Homo sapiens)

>  <Ki>
< 500 nM

$$$$

Value of measured Ki for the entry CC(C)n1cc(-c2ncnc3[nH]ccc23)cn1 : < 100 nM

Value of measured Ki for the entry C[C@H](Nc1cc(C(=O)N(C)Cc2ccccc2)nc(-c2c[nH]c3ncncc23)n1)C(=O)NCC(F)(F)F : 500 to 5000 nM

Value of measured Ki for the entry c1ccc2c(c1)NC(c1ccc(-n3cncn3)cc1)c1c[nH]c3nccc-2c13 (stereo not drawn) : > 2500 nM

Value of measured Ki for the entry CC1(O)CCN(c2ccn(-c3cc(-c4c(F)cccc4C#N)nc4c3C(=O)NC4)n2)C1 (stereo not drawn) : 10 to 100 nM
